METHOD NOTES: changing rate of blood pressure and heart rate by intravenous injection in anesthetized rats
Assay type: in vivo, Wister male rats
CONDITIONS: Rattus norvegicus, 1 (mg/kg), Table 1, read-out: changing rate of blood pressure

{"MOLECULE": "CCCCCC(=O)CC[C@H]1[C@H](O)CC(=O)[C@@H]1CC(=O)CCCCC(=O)O [Compound 5, 13,14-dihydro-6,15-diketo-PGE1, reference compound]", "change in vivo at 1 mg/kg, %": -4}
{"MOLECULE": "CCCCC[C@H](O)/C=C/[C@H]1[C@H](O)CC(=O)[C@@H]1C/C=C\\CCCC(=O)OC [Compound 58, PGE2 methyl ester, reference compound]", "change in vivo at 1 mg/kg, %": -11}
{"MOLECULE": "COC(=O)CCCCC(=O)C[C@H]1C(=O)C[C@@H](CO)[C@@H]1CCC(=O)CCCC(C)C", "change in vivo at 1 mg/kg, %": 26}
{"MOLECULE": "CCCCCC(=O)CC[C@H]1[C@H](C)CC(=O)[C@@H]1C/C=C\\CCCC(=O)OCC", "change in vivo at 1 mg/kg, %": 11}
